# Tested on: a variety of test species
# Test Details: Pre-emergence herbicidal activity (glasshouse, sprayed one day after sowing, evaluated after 13 days)
# Type: in vivo
# Condition: ECHCG, application pre-emergence, rate 1000 g/Ha, scale 0-5
Metric: Pre-emergence herbicidal damage score, ECHCG
Keep it simple and answer with nothing but the number.

Completed entries (count: 9):
INSERT INTO assay_data (compound, value_reported) VALUES
  ('COC1=C(C)C(O)N(c2noc(C(C)(C)C)c2C#N)C1=O (stereo not shown) [D2]', 4),
  ('CCCC1=C(Cl)C(=O)N(c2noc(C(C)(C)CC)c2C#N)C1O (stereo not shown)', 5),
  ('CC(=O)OC1C(N)=C(Cl)C(=O)N1c1cc(C(C)(C)C)on1 (stereo not shown)', 5),
  ('COC1=C(C)C(=O)N(c2noc(C(C)C)c2C#N)C1O (stereo not shown)', 5),
  ('CC1=C(Cl)C(=O)N(c2cc(C(C)(C)C)on2)C1', 5),
  ('COc1ccccc1OC(=O)OC1C(C)=C(Cl)C(=O)N1c1cc(C(C)(C)C)on1 (stereo not shown)', 1),
  ('CC1=C(Cl)C(=O)N(c2noc(C(C)(C)C)c2C)C1O (stereo not shown)', 5),
  ('CC(C)(C)CNC1=C(Cl)C(=O)N(c2cc(C(C)(C)C)on2)C1O (stereo not shown)', 0),
  ('CC1=C(Cl)C(=O)N(c2noc(C(C)(C)C)c2C#N)C1', 4);

Attention now turns to another entry.
Exercise: Give Pre-emergence herbicidal damage score, ECHCG; test system a variety of test species; compound CCCCC(C)(C)c1onc(N2C(=O)C(Cl)=C(C)C2O)c1C#N (stereo not shown)
Solution: 2

----------
Metric: melting point

Answered examples (6):
INSERT INTO results (molecule, value_reported) VALUES
  ('CC1=C(Cl)C(=O)N(c2cc(C(C)(C)C#N)on2)C1', '141 to 143 °C'),
  ('CCC1=C(Cl)C(=O)N(c2noc(C(C)C)c2C#N)C1O (centres unmarked)', '93 to 95 °C'),
  ('COC1=C(C)C(=O)N(c2cc(C(C)(C)C#N)on2)C1O (centres unmarked)', '121 to 123 °C'),
  ('CC1=C(Cl)C(=O)N(c2cc(C(C)(C)C)on2)C1OC(=O)OCC(C)C (centres unmarked)', '84 to 88 °C'),
  ('COC1=C(Cl)C(OC(C)=O)N(c2cc(C(C)(C)C)on2)C1=O (centres unmarked) [E2]', '101 to 107 °C'),
  ('CCC1=C(Br)C(=O)N(c2noc(C(C)C)c2C#N)C1O (centres unmarked)', '106 to 108 °C');

Exercise: Supply recorded melting point for CC1=C(Br)C(=O)N(c2noc(C(C)C)c2C#N)C1O (centres unmarked) here.
Solution: 127 to 129 °C

Exercise: Please list melting point recorded for the molecule CC1=C(Cl)C(=O)N(c2cc(C3CC3)on2)C1O (centres unmarked)
Solution: 174 to 176 °C

Exercise: Give the reported value of melting point for this record: CC1=C(Cl)C(=O)N(c2cc(C(C)C)on2)C1O (centres unmarked)
Solution: 126 to 128 °C

----------
# Tested on: a variety of test species
# Test Details: Pre-emergence herbicidal activity (glasshouse, sprayed one day after sowing, evaluated after 13 days)
# Assay type: in vivo
# Condition: ECHCG, application pre-emergence, rate 1000 g/Ha, scale 0-5
Metric: Pre-emergence herbicidal damage score, ECHCG
Give your answer as a number; write no unit.

INSERT INTO results (molecule, value_reported) VALUES
  ('CC1=C(Br)C(=O)N(c2cc(C)on2)C1O (stereo not drawn)', 3),
  ('CCC1=C(Br)C(=O)N(c2cc(C(C)(C)C)on2)C1O (stereo not drawn)', 4),
  ('CCC(C)(C)c1onc(N2C(=O)C(OC)=C(C)C2O)c1C#N (stereo not drawn)', 5),
  ('COC1=C(C)C(OC(C)=O)N(c2cc(C(C)(C)C)on2)C1=O (stereo not drawn)', 4);

Exercise: Report measured Pre-emergence herbicidal damage score, ECHCG; entry is CC1=C(I)C(=O)N(c2cc(C(C)(C)C)on2)[C@H]1O
Solution: 5

Exercise: Give the value of Pre-emergence herbicidal damage score, ECHCG reported for the following: COC1=C(C)C(O)N(c2cc(C(C)(C)C#N)on2)C1=O (stereo not drawn)
Solution: 5

Exercise: Please look at this molecule and report its Pre-emergence herbicidal damage score, ECHCG: CCCC1=C(Cl)C(=O)N(c2noc(C(C)(C)C)c2C#N)C1OC(=O)CC (stereo not drawn)
Solution: 5

Exercise: Hello, please tell me recorded Pre-emergence herbicidal damage score, ECHCG for this one: CCOC(=O)OC1C(C)=C(Cl)C(=O)N1c1noc(C(C)(C)C)c1C#N (stereo not drawn)
Solution: 5

Exercise: Give Pre-emergence herbicidal damage score, ECHCG for CCOC(C)(C)CCCc1cc(N2C(=O)C(Cl)=C(C)C2O)no1 (stereo not drawn)
Solution: 4

----------
# System: a variety of test species
# Test Details: Pre-emergence herbicidal activity (glasshouse, sprayed one day after sowing, evaluated after 13 days)
# Type: in vivo
# Parameters: key: 5=total damage to plant; 0=no damage to plant
# Condition: ECHCG, application pre-emergence, rate 1000 g/Ha, scale 0-5
Metric: Pre-emergence herbicidal damage score, ECHCG
Please give the numeric answer without any surrounding text.

INSERT INTO results (compound, value_reported) VALUES
  ('CCCC1=C(Cl)C(=O)N(c2noc(C(C)(C)C)c2C#N)C1O (stereo not shown) [A54]', 5),
  ('CC1=C(Br)C(=O)N(c2noc(C(C)C)c2C#N)C1O (stereo not shown) [A61]', 5),
  ('C=CC(C)(C)c1cc(N2C(=O)C(Cl)=C(C)C2O)no1 (stereo not shown) [A41]', 4);

Exercise: # return Pre-emergence herbicidal damage score, ECHCG for COC1=C(C)CN(c2noc(C(C)C)c2C#N)C1=O [D10] , test system: a variety of test species
Solution: 5

Exercise: // fetch Pre-emergence herbicidal damage score, ECHCG; item: COC1=C(Cl)C(OC(C)=O)N(c2cc(C(C)(C)C)on2)C1=O (stereo not shown) [E2] ; system: a variety of test species
Solution: 4

Exercise: Look up and report Pre-emergence herbicidal damage score, ECHCG, with a variety of test species as system, for CC1=C(Cl)C(=O)N(c2cc(C(C)(C)C#N)on2)C1 [A104]
Solution: 5

Exercise: Return reported Pre-emergence herbicidal damage score, ECHCG for target or system a variety of test species, item C=CCNC1=C(Cl)C(=O)N(c2cc(C(C)(C)C)on2)C1O (stereo not shown) [C7] .
Solution: 5

Exercise: Provide the reported Pre-emergence herbicidal damage score, ECHCG (system: a variety of test species) for CCC1=C(I)C(=O)N(c2cc(C(C)(C)C)on2)C1O (stereo not shown) [A13]
Solution: 3

----------
# System: a variety of test species
# Test Details: Pre-emergence herbicidal activity (glasshouse, sprayed one day after sowing, evaluated after 13 days)
# Assay type: in vivo
# Condition: ZEAMX, application pre-emergence, rate 1000 g/Ha, scale 0-5
Metric: Pre-emergence herbicidal damage score, ZEAMX
# output: bare number, no unit

INSERT INTO results (compound, value_reported) VALUES
  ('COC(=O)OC1C(C)=C(Cl)C(=O)N1c1cc(C(C)(C)C)on1 (centres unmarked)', 3),
  ('C=CCOCC(C)(C)c1cc(N2C(=O)C(Cl)=C(C)C2O)no1 (centres unmarked)', 3),
  ('C=C(C)CNC1=C(Cl)C(=O)N(c2cc(C(C)(C)C)on2)C1O (centres unmarked)', 2),
  ('CC(C)(C)c1cc(N2C(=O)C(Cl)=C(NCC3CC3)C2O)no1 (centres unmarked)', 3);

Exercise: Fill in Pre-emergence herbicidal damage score, ZEAMX for record CCCC1=C(Cl)C(=O)N(c2cc(C(C)(C)C)on2)C1O (centres unmarked)
Solution: 4

Exercise: Give Pre-emergence herbicidal damage score, ZEAMX for CCCC1=C(Br)C(=O)N(c2cc(C(C)(C)C#N)on2)C1O (centres unmarked)
Solution: 4

Exercise: Provide Pre-emergence herbicidal damage score, ZEAMX value for the following compound: CC(C)(C)c1cc(N2C(=O)C(Cl)=C(NC3CC3)C2O)no1 (centres unmarked)
Solution: 2

Exercise: Fill in Pre-emergence herbicidal damage score, ZEAMX for record CCOc1cc(N2C(=O)C(Cl)=C(C)C2O)no1 (centres unmarked)
Solution: 1

----------
# System: a variety of test species
# Test Details: Pre-emergence herbicidal activity (glasshouse, sprayed one day after sowing, evaluated after 13 days)
# Assay type: in vivo
# Parameters: key: 5=total damage to plant; 0=no damage to plant
# Condition: ABUTH, application pre-emergence, rate 1000 g/Ha, scale 0-5
Readings of Pre-emergence herbicidal damage score, ABUTH for the listed molecules
Please reply with the number alone, leaving off any unit.

INSERT INTO assay_data (molecule, value_reported) VALUES
  ('CCC(C)(C)c1onc(N2C(=O)C(C)=C(OC)C2O)c1C#N (stereo not shown) [G5]', 5);

Exercise: Supply measured Pre-emergence herbicidal damage score, ABUTH of COC1=C(C)C(=O)N(c2cc(C)on2)C1O (stereo not shown) [G2] in your reply.
Solution: 5

Exercise: State its Pre-emergence herbicidal damage score, ABUTH for this molecule: CCC1=C(Br)C(=O)N(c2noc(C(C)C)c2C#N)C1O (stereo not shown) [A62]
Solution: 5

Exercise: Name the recorded Pre-emergence herbicidal damage score, ABUTH of the molecule listed here: CC1=C(Cl)C(=O)N(c2noc(C(C)(C)C)c2Cl)C1O (stereo not shown) [A24]
Solution: 5

Exercise: Retrieve Pre-emergence herbicidal damage score, ABUTH measured for CC1=C(Cl)C(=O)N(c2cc(C(C)(C)CO)on2)C1O (stereo not shown) [A39] and print it.
Solution: 1

Exercise: Answer with reported Pre-emergence herbicidal damage score, ABUTH of CC(=O)OC1C(C)=C(Cl)C(=O)N1c1cc(C(C)(C)C)on1 (stereo not shown) [A75]
Solution: 5

Exercise: Kindly indicate its recorded Pre-emergence herbicidal damage score, ABUTH. Item: CC1=C(Cl)C(=O)N(c2cc(C)on2)C1O (stereo not shown) [A4]
Solution: 5

Exercise: Specify measured Pre-emergence herbicidal damage score, ABUTH for CCC1=C(Cl)C(=O)N(c2noc(C(C)(C)CC)c2C#N)C1O (stereo not shown) [A60] .
Solution: 5

Exercise: Supply measured Pre-emergence herbicidal damage score, ABUTH of CC1=C(Cl)C(=O)N(c2noc(C(C)(C)C)c2C#N)C1OS(C)(=O)=O (stereo not shown) [A98] in your reply.
Solution: 5

Exercise: # return recorded Pre-emergence herbicidal damage score, ABUTH for input C=CCNC1=C(Cl)C(=O)N(c2cc(C(C)(C)C)on2)C1O (stereo not shown) [C7]
Solution: 5

Exercise: // fetch Pre-emergence herbicidal damage score, ABUTH given entry CC#CCOC(=O)OC1C(C)=C(Cl)C(=O)N1c1cc(C(C)(C)C)on1 (stereo not shown) [A85]
Solution: 5

Exercise: Determine its reported Pre-emergence herbicidal damage score, ABUTH: CCC1=C(Br)C(=O)N(c2cc(C(C)(C)C)on2)C1O (stereo not shown) [A14]
Solution: 5

Exercise: Please report the measured Pre-emergence herbicidal damage score, ABUTH for CC1=C(Br)C(=O)N(c2noc(C(C)(C)C)c2C#N)C1O (stereo not shown) [A50]
Solution: 5

Exercise: Look up Pre-emergence herbicidal damage score, ABUTH of CC1=C(Br)C(=O)N(c2cc(C(F)(F)F)on2)C1O (stereo not shown) [A6] and report it.
Solution: 0

Exercise: Respond only with Pre-emergence herbicidal damage score, ABUTH recorded for CCCC(C)(C)c1cc(N2C(=O)C(Cl)=C(C)C2O)no1 (stereo not shown) [A37]
Solution: 5

Exercise: Supply recorded Pre-emergence herbicidal damage score, ABUTH for CC1=C(Cl)C(=O)N(c2cc(C(C)(C)C)on2)C1OC(=O)C(C)(C)C (stereo not shown) [A77] here.
Solution: 1
